- Target Or Test System: T1, human parathyroid hormone receptor (PTHR) (human, UniProt Q03431 27-593)
- T1 construct: Assayed in membranes of HKRK-B7 cells or of transiently transfected COS-7 cells, or on intact HKRK-B7/HKRK-B64/COS-7 cells; RG = co-transfected with negative-dominant Galpha-s; R0 = receptor alone plus GTPgammaS; also called hPTHR; human PTH receptor
- T1 sequence: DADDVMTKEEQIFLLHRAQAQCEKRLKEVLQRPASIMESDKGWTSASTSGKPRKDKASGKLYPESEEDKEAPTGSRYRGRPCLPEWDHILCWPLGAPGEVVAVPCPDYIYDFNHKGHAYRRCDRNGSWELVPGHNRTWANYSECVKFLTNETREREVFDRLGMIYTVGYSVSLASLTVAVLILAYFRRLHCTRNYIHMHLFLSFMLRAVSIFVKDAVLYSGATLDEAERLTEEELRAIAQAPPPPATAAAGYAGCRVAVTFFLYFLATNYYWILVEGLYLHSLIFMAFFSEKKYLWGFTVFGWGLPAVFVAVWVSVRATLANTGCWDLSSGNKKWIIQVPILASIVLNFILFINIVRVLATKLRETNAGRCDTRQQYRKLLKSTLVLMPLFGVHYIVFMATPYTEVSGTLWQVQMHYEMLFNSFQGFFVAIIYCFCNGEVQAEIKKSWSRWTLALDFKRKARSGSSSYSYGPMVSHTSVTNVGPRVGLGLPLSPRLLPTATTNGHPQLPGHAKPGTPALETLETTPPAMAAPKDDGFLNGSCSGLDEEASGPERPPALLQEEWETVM
- Assay Notes: ratio of R0 IC50 to RG IC50, human PTH1 receptor
Ends that are not written are not given here.
Attribute Measured: R0/RG ratio

Ask: I have this binder here, AVAEIQLMHQRAKWLNSMRRVEFLRKKLQDVHNF-OH (Mc = A1,3,12,Q10,R11,W14,R19) [F23,Mc-PTH(1-34)OH] , and I need its recorded R0/RG ratio.
Result: 5

Ask: Please give the measured R0/RG ratio for this binder: AVAEIQLMHNLGKHLNSMERVEALRKKLQDVHNF-OH (also called [A^1,A^3,A^23]-PTH(1-34)OH; [A1,3,23]-hPTH(1-34)) [[A1,3,23]-PTH(1-34)OH]
Result: 4290

Ask: What value of R0/RG ratio has been reported for the following binder? AVSEHQLLHDKGKSIQDERRRAFLLKLIAE-NH2 (also called EALK-PTHrP(1-30)) [E18,A22,L25,K26-PTHrP(1-30)NH]
Result: 11800

Ask: Sample AVAEIQLMHQRAKWLNSMRAVEWLRKKLQDVHNF-OH (Mc = A1,3,12,Q10,R11,W14,R19) [A20,Mc-PTH(1-34)OH] — what was its R0/RG ratio?
Result: 80

Where these numbers come from: patent US20110172153A1
